Entries and their self-aminoacylation values follow.
System: biotinyl-Met-oxazolone
Experimental protocol: self-aminoacylation, catalytic enhancement (BMO) (fold over background); higher = more active; k-Seq, kA / k0A0; sequences stand for … in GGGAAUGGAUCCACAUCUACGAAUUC…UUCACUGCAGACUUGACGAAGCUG
Variants at the floor of the assay were thinned out.
Please state the value as a number alone, without comment.

A selection of reference data follows.
{"columns": ["Ordered residues", "self-aminoacylation"],
 "data": [
  ["AUUAGCCUGGUCAUCUAGUGA [Fam2.1 aminoacylation ribozyme variant]", 4.79],
  ["AUUCACUUAGGUCAUCGGGUA [Fam2.2 aminoacylation ribozyme variant]", 2.38],
  ["AUGUUUGCUAAUAGUCGAAAG [Fam3.1 aminoacylation ribozyme variant]", 1.08],
  ["AUGCACGUAGGUCAUCGGGUG [Fam2.2 aminoacylation ribozyme variant]", 4.47]
]}

// next entry
**Query** For the sequence AUACACCUAGGUCAUCGCGUG [Fam2.2 aminoacylation ribozyme variant] , what self-aminoacylation is on record?
**Result** 8.65

====

System: biotinyl-Val-oxazolone
Experimental protocol: self-aminoacylation, catalytic enhancement (BVO) (fold over background); higher = more active; k-Seq, kA / k0A0; sequences stand for … in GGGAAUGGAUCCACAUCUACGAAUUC…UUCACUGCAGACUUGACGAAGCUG
Fewer inactive variants are shown than the library holds.
Please use satisfied whenever self-aminoacylation is not below 1, and not satisfied whenever it is.

Look over these answered cases.
{"columns": ["Ordered residues", "Class name"],
 "data": [
  ["AUUCACCUCGGGCAUCGGGUG [Fam2.2 aminoacylation ribozyme variant]", "satisfied"],
  ["AUUACCAUCGUCAUCGAGUGA [Fam2.1 aminoacylation ribozyme variant]", "satisfied"],
  ["CUACAUCAAACAACCGGUCUG [Fam1A.1 aminoacylation ribozyme variant]", "satisfied"],
  ["AUUUCCCUGGUCAUCGAGUGA [Fam2.1 aminoacylation ribozyme variant]", "satisfied"],
  ["AAGUUUGUUAAUAGUCGCAAA [Fam3.1 aminoacylation ribozyme variant]", "satisfied"]
]}

**Query** Quick check: does AUUACCUUGGUCAUAGAGUGA [Fam2.1 aminoacylation ribozyme variant] have self-aminoacylation greater than or equal to 1?
**Result** satisfied

**Query** Quick check: does CUACUUCAAACAAUCUGCCUG [Fam1A.1 aminoacylation ribozyme variant] have self-aminoacylation greater than or equal to 1?
**Result** not satisfied

**Query** Quick check: does AUUCACCUAGAUCAUAGGGUG [Fam2.2 aminoacylation ribozyme variant] have self-aminoacylation greater than or equal to 1?
**Result** satisfied

**Query** Quick check: does CUACUUCAAACAAGCGGACUG [Fam1A.1 aminoacylation ribozyme variant] have self-aminoacylation greater than or equal to 1?
**Result** not satisfied

**Query** Quick check: does AUUACCCGGGACAUCGAGUGA [Fam2.1 aminoacylation ribozyme variant] have self-aminoacylation greater than or equal to 1?
**Result** satisfied

**Query** Quick check: does CAGUUUGCUGAUAGUCGCAAG [Fam3.1 aminoacylation ribozyme variant] have self-aminoacylation greater than or equal to 1?
**Result** satisfied

====

System: biotinyl-Trp-oxazolone
Experimental protocol: self-aminoacylation, catalytic enhancement (BWO) (fold over background); higher = more active; k-Seq, kA / k0A0; sequences stand for … in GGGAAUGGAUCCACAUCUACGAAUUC…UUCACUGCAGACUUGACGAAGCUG
This sample holds only a part of the variants without activity.
Measure: self-aminoacylation
Please state the value as a number alone, without comment.

**Query** For the sequence CCACACUUCAACCAAUCGGUG [Fam1B.1 aminoacylation ribozyme variant] , what self-aminoacylation is on record?
**Result** 5.38

====

System: biotinyl-Trp-oxazolone
Experimental protocol: self-aminoacylation, catalytic enhancement (BWO) (fold over background); higher = more active; k-Seq, kA / k0A0; sequences stand for … in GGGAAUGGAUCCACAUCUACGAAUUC…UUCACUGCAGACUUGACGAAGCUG
Variants at the floor of the assay were thinned out.
Measure: self-aminoacylation
Please state the value as a number alone, without comment.

{"columns": ["Ordered residues", "Experimental value"],
 "data": [
  ["AUUACCCUGGUCGUCGCGUGA [Fam2.1 aminoacylation ribozyme variant]", 8.26],
  ["AAGUUUGCUCAAAGUCGCAAG [Fam3.1 aminoacylation ribozyme variant]", 1.13],
  ["AAGUUUGCUAGUUGUCGCAAG [Fam3.1 aminoacylation ribozyme variant]", 1.18],
  ["AAGUUUGCUAAUAGUCGAAUG [Fam3.1 aminoacylation ribozyme variant]", 1.17],
  ["AUUACCCUAGUCAUCUAGUGA [Fam2.1 aminoacylation ribozyme variant]", 10.6]
]}

**Query** For the sequence AUUCAUCUAGGUCAUCGGGUC [Fam2.2 aminoacylation ribozyme variant] , what self-aminoacylation is on record?
**Result** 1.02

====

Tested on: biotinyl-Ile-oxazolone
Experimental protocol: self-aminoacylation, catalytic enhancement (BIO) (fold over background); higher = more active; k-Seq, kA / k0A0; sequences stand for … in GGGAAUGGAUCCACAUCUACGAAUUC…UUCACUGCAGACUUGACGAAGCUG
Variants at the floor of the assay were thinned out.
Entries and their self-aminoacylation values follow.

A selection of reference data follows.
{"columns": ["Ordered residues", "self-aminoacylation"],
 "data": [
  ["CCUCACUUCAUGCAAUCGGUC [Fam1B.1 aminoacylation ribozyme variant]", 0.734],
  ["CCACACUCCAAGCACUCGGUC [Fam1B.1 aminoacylation ribozyme variant]", 1.35],
  ["ACUACCCUUGUCAUCGAGUGA [Fam2.1 aminoacylation ribozyme variant]", 3.28]
]}

**Query** For the sequence CGACUUCACACAAUCGGUCUG [Fam1A.1 aminoacylation ribozyme variant] , what self-aminoacylation is on record?
**Result** 1.05

**Query** For the sequence AUUAACCUGGUCAUGGAGUGA [Fam2.1 aminoacylation ribozyme variant] , what self-aminoacylation is on record?
**Result** 2.45

**Query** For the sequence CCACACUUUAAGCAAUCAGUC [Fam1B.1 aminoacylation ribozyme variant] , what self-aminoacylation is on record?
**Result** 0.76

**Query** For the sequence GUUCACCUACGUCAUCGGGUG [Fam2.2 aminoacylation ribozyme variant] , what self-aminoacylation is on record?
**Result** 3.26

**Query** For the sequence CUACUUCGAACAAUCCGUCUG [Fam1A.1 aminoacylation ribozyme variant] , what self-aminoacylation is on record?
**Result** 0.636

====

Tested on: biotinyl-Met-oxazolone
Experimental protocol: self-aminoacylation, catalytic enhancement (BMO) (fold over background); higher = more active; k-Seq, kA / k0A0; sequences stand for … in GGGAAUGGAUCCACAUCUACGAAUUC…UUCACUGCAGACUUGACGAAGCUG
Variants at the floor of the assay were thinned out.
Entries and their self-aminoacylation values follow.
Please state the value as a number alone, without comment.

{"columns": ["Ordered residues", "Tested target", "self-aminoacylation"],
 "data": [
  ["CUACUUAAAACAAUCGCUCUG [Fam1A.1 aminoacylation ribozyme variant]", "biotinyl-Met-oxazolone", 0.706],
  ["CUACUUCAAGCAAUCGGUCAG [Fam1A.1 aminoacylation ribozyme variant]", "biotinyl-Met-oxazolone", 1.09],
  ["AUUCACCAAGGUCAUCGGGCG [Fam2.2 aminoacylation ribozyme variant]", "biotinyl-Met-oxazolone", 4.07],
  ["AAGUUAGCUCAUAGUCGCAAG [Fam3.1 aminoacylation ribozyme variant]", "biotinyl-Met-oxazolone", 1.88],
  ["AUUCACAUAGGUCAUCUGGUG [Fam2.2 aminoacylation ribozyme variant]", "biotinyl-Met-oxazolone", 2.89]
]}

**Query** For the sequence CCACACUUCAAGCUAUCGGUG [Fam1B.1 aminoacylation ribozyme variant] , what self-aminoacylation is on record?
**Result** 5.19

**Query** For the sequence CUACUGUAAACAAUCGGUCUG [Fam1A.1 aminoacylation ribozyme variant] , what self-aminoacylation is on record?
**Result** 0.887

**Query** For the sequence AUACACCUAGGUGAUCGGGUG [Fam2.2 aminoacylation ribozyme variant] , what self-aminoacylation is on record?
**Result** 3.56

====

Test system: biotinyl-Leu-oxazolone
Experimental protocol: self-aminoacylation, catalytic enhancement (BLO) (fold over background); higher = more active; k-Seq, kA / k0A0; sequences stand for … in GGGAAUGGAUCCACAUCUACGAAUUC…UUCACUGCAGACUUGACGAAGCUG
Fewer inactive variants are shown than the library holds.
Entries and their self-aminoacylation values follow.
Please state the value as a number alone, without comment.

{"columns": ["Ordered residues", "self-aminoacylation"],
 "data": [
  ["AUUCCCCUUGGUCAUCGGGUG [Fam2.2 aminoacylation ribozyme variant]", 27.4],
  ["AUUUACCUAGGGCAUCGGGUG [Fam2.2 aminoacylation ribozyme variant]", 3.47],
  ["CGACUUCACACAAUCGGUCUG [Fam1A.1 aminoacylation ribozyme variant]", 1.23],
  ["CUACUUCAAACACUCGGACUG [Fam1A.1 aminoacylation ribozyme variant]", 0.89],
  ["CUACUGCAAACAAUCGUUCUG [Fam1A.1 aminoacylation ribozyme variant]", 0.647]
]}

**Query** For the sequence CCACACUUCAAGCUAUUGGUC [Fam1B.1 aminoacylation ribozyme variant] , what self-aminoacylation is on record?
**Result** 0.595

**Query** For the sequence CUACUUCUAACAAUCGAUCUG [Fam1A.1 aminoacylation ribozyme variant] , what self-aminoacylation is on record?
**Result** 0.509

**Query** For the sequence AUAUCCCUGGUCAUCGAGUGA [Fam2.1 aminoacylation ribozyme variant] , what self-aminoacylation is on record?
**Result** 9.81
